- target.or.system: human leukocyte elastase (hLE) (Homo sapiens)
- Construct: Neutrophils (1.4 billion) were isolated from whole blood obtained from a single healthy laboratory donor; from tissue; host or cells: neutrophils from whole blood of a single healthy donor
- assay.comment: In-vitro inhibition of hLE (cleavage of MeOSuc-AAPV-NA)
- Type: biochemical
pKi: −log10 of the molar value. Starred links: 1 amine or outer side, 2 acyl side, 3 side chain; linkers in the order of their positions; H or OH if unused. Non-standard residues stand in square brackets, D forms with d. Residues, ends and D or L forms follow the SMILES beside them. *: point of attachment. Fmoc = O=C(OCC1c2ccccc2-c2ccccc21)*; NH(1-naphthyl) = c1ccc2c(N*)cccc2c1; MeOSuc = COC(=O)CCC(=O)*; CO = O=C([*:1])[*:2]; Ahx = NCCCCCC(=O)O
Collected pKi values appear next to each entry.
property.label: pKi

# compound, property.label, readout.number
records = [
    ("CC[C@H](C)[C@H](NC(=O)[C@H](Cc1c[nH]cn1)NC(=O)[C@@H](NC(=O)[C@@H]1CCCN1C(=O)[C@H](C)NC(=O)[C@@H](NC(=O)[C@@H](NC(=O)[C@@H](NC(=O)CCCCCNC(C)=O)C(C)C)[C@@H](C)O)C(C)C)C(C)C)C(=O)O [Peptide 22] (Ac-[Ahx]VTVAPVHI-OH)", "pKi", 3.68),
    ("CC[C@H](C)[C@H](NC(=O)[C@H](Cc1c[nH]cn1)NC(=O)[C@@H](NC(=O)[C@@H]1CCCN1C(=O)[C@H](C)NC(=O)[C@@H](NC(=O)[C@@H](NC(=O)[C@@H](NC(=O)Nc1cccc2ccccc12)C(C)C)[C@@H](C)O)C(C)C)C(C)C)C(=O)O [Peptide 18] ({NH(1-naphthyl)-CO}-VTVAPVHI-OH)", "pKi", 3.62),
    ("CC[C@H](C)[C@H](NC(=O)[C@H](Cc1c[nH]cn1)NC(=O)[C@@H](NC(=O)[C@@H]1CCCN1C(=O)[C@H](C)NC(=O)[C@@H](NC(=O)[C@@H](NC(=O)[C@@H](NC(=O)CCC(=O)OC)C(C)C)[C@@H](C)O)C(C)C)C(C)C)C(=O)O [Peptide 15] (MeOSuc-VTVAPVHI-OH)", "pKi", 3.80),
    ("CC[C@H](C)[C@H](NC(=O)[C@H](Cc1c[nH]cn1)NC(=O)[C@H](NC(=O)[C@@H]1CCCN1C(=O)[C@H](C)NC(=O)[C@@H](NC(=O)[C@@H](NC(=O)[C@@H](N)C(C)C)[C@@H](C)O)C(C)C)C(C)C)C(=O)O [Peptide 7, Val89-Thr-Val-Ala-Pro-(D)Val-His-Ile9] (H-VTVAP[dV]HI-OH; N-terminus and C-terminus assumed)", "pKi", 3.48),
    ("CC[C@H](C)[C@H](NC(=O)[C@H](Cc1c[nH]cn1)NC(=O)[C@@H](NC(=O)[C@H]1CCCN1C(=O)[C@H](C)NC(=O)[C@@H](NC(=O)[C@@H](NC(=O)[C@@H](N)C(C)C)[C@@H](C)O)C(C)C)C(C)C)C(=O)O [Peptide 27, Val89-Thr-Val-Ala-(D)Pro-Val-His-Ile96] (H-VTVA[dP]VHI-OH; N-terminus and C-terminus assumed)", "pKi", 3.25),
    ("CC[C@H](C)[C@H](NC(=O)[C@H](Cc1c[nH]cn1)NC(=O)[C@@H](NC(=O)[C@@H]1CCCN1C(=O)[C@H](C)NC(=O)[C@@H](NC(=O)[C@@H](NC(=O)[C@@H](NC(=O)OCC1c2ccccc2-c2ccccc21)C(C)C)[C@@H](C)O)C(C)C)C(C)C)C(=O)O [Peptide 23, Fmoc-Val89-Thr-Val-Ala-Pro-Val-His-Ile96] (Fmoc-VTVAPVHI-OH)", "pKi", 3.00),
]

----------
- target.or.system: human leukocyte cathepsin G (hCG) (Homo sapiens, UniProt P08311)
- Construct: Neutrophils (1.4 billion) were isolated from whole blood obtained from a single healthy laboratory donor; from tissue; host or cells: neutrophils from whole blood of a single healthy donor
- Sequence (P08311 21-244 limits assumed): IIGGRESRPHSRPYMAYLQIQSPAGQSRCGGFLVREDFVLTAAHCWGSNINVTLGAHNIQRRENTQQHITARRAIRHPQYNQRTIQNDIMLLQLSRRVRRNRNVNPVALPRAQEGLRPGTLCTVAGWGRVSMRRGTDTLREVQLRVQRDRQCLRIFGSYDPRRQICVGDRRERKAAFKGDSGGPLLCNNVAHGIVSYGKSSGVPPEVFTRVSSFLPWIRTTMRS
- assay.comment: In-vitro inhibition of hCG (conversion of Suc-AAPF-NA)
- Format: biochemical
- condition.notes: substrate Suc-AAPF-NA, 600 μM; read-out: hCG Ki
No end group written: not given here.

# substance, Ki
rows = [
    ("VTVAPFHIP-NH2 [Peptide 13]", "900 µM"),
    ("VTVAPVFI [Peptide 10, Val89-Thr-Val-Ala-Pro-Val-Phe-Ile96]", "1 µM"),
]

----------
- target.or.system: human leukocyte elastase (hLE) (Homo sapiens, UniProt P08246)
- Construct: Neutrophils (1.4 billion) were isolated from whole blood obtained from a single healthy laboratory donor; from tissue; host or cells: neutrophils from whole blood of a single healthy donor
- Sequence (P08246 30-247 limits assumed): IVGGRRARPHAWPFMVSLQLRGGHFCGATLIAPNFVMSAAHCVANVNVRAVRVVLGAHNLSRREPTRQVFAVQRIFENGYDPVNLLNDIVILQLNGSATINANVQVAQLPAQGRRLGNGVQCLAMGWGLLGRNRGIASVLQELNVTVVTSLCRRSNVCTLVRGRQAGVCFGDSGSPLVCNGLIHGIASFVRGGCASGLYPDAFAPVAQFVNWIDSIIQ
- assay.comment: In-vitro inhibition of hLE (cleavage of MeOSuc-AAPV-NA)
- Type: biochemical
- condition.notes: substrate MeOSuc-AAPV-NA, 100 mM Hepes pH 7.4, 37° C.; read-out: hLE Ki
No end group written: not given here.
# Lookup of reported Ki keyed by entry
property.label: Ki (µM)

# substance, property.label, readout.number
data = [
    ("VTVAPVFI [Peptide 10, Val89-Thr-Val-Ala-Pro-Val-Phe-Ile96]", "Ki", 110),
    ("VTVAPFHIP-NH2 [Peptide 13]", "Ki", 180),
    ("VAPVHI [Peptide 26, Val91-Ala-Pro-Val-His-Ile96]", "Ki", 1000),
    ("LEAIPMSI [Peptide 24, Leu-Glu-Ala-Ile-Pro-Met-Ser-Ile, reference compound]", "Ki", 350),
    ("VTVAPV [Peptide 25, Val89-Thr-Val-Ala-Pro-Val94]", "Ki", 900),
    ("VTVAPVSI [Peptide 9, Val89-Thr-Val-Ala-Pro-Val-Ser-Ile96]", "Ki", 200),
]
